# run-description: S. pombe growth modifiers, basal conditions – strain 972, OD600, 24 h, no modulator, primary screen (AID 1090);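 also: basal condition with compound alone and no growth modifier present; test concentration not given here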
# assay-setup: S. pombe 972 growth, higher = more signal, called active from +8 up or from −8 down
Some compounds, each annotated with its measured z-score.
// response body must contain only the number

Consider the following illustrative entries.
{"compound": "C=CCOC(=O)[C@@]1(Cc2ccccc2)C[C@H]2CO[C@H](c3ccc(OC)cc3)N2C1=O", "z-score": -3.58}
{"compound": "CC(C)c1ccc(NN2C(C(O)c3ccc(F)cc3)C=CC3C(=O)N(c4ccccc4)C(=O)C32)cc1 (stereo not given)", "z-score": 0.842}
{"compound": "CCCCC(CC)C(O)C1C=CC2C(=O)N(C)C(=O)C2N1Nc1ccccc1 (stereo not given)", "z-score": -0.592}

Exercise: Find the recorded z-score belonging to CC(C)N1C(=O)C[C@@](C(=O)O)(c2ccc([N+](=O)[O-])cc2)[C@H]1c1ccc(CO)cc1 and report it.
Key: -0.996

Exercise: What do we get for CO[C@H]1O[C@H](CO)[C@@H](OC(=O)Nc2ccc3c(c2)OCO3)[C@H](OC(=O)Nc2ccc3c(c2)OCO3)[C@@H]1OC(=O)Nc1ccc2c(c1)OCO2 ?
Key: 1.37

###

# run-description: probe aInhba binding on compound microarray – biochemical, small-molecule microarray, 635/667 nm fluorescence, primary screen (AID 1148);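 also: score merges 667nm spot fluorescence with signal-to-noise for antibody binding to printed compounds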
# assay-setup: higher = more signal
test-readout: composite z-score

Sample records with composite z-score:
{"compound": "COc1ccc(C#Cc2ccc3c(c2)[C@]2(C(=O)N3)[C@H](C(=O)O)[C@H]3C(=O)O[C@H](c4ccccc4)[C@H](c4ccccc4)N3[C@@H]2c2ccc(O)cc2)cc1", "test-readout": "composite z-score", "result": -0.0313}
{"compound": "CCCC#C[Si](O[C@H](CC)c1cn([C@H](C)c2ccccc2)nn1)(C(C)C)C(C)C", "test-readout": "composite z-score", "result": 0.143}
{"compound": "CCCCC(CC)C(O)C1C=CC2C(=O)N(c3ccccc3)C(=O)C2N1Nc1ccc(C#N)cc1 (stereo unspecified)", "test-readout": "composite z-score", "result": 0.722}
{"compound": "CO[C@H]1O[C@H](CO)[C@@H](OC(=O)Nc2ccc(Br)cc2)[C@@H]2OC(=O)[C@@H](Cc3ccccc3)C/C=C/C[C@H](Cc3ccccc3)C(=O)O[C@@H]12", "test-readout": "composite z-score", "result": 0.115}

Exercise: Fill in the blank: the reported composite z-score of O=C1O[C@H](c2ccccc2)[C@H](c2ccccc2)N2[C@H]1[C@@H](C(=O)O)[C@]1(C(=O)Nc3ccc(C#CCCO)cc31)[C@H]2c1ccccc1OCCO is ____.
Key: -0.0986

Exercise: C=CCN1C(=O)[C@]2(CCS(=O)(=O)c3ccccc3)N=C(c3ccc(OCCCO)cc3)O[C@@H]2c2ccccc21 , same question.
Key: 0.0841

###

# run-description: growth modulation of vineyard yeast isolate – strain RM11-1a, OD600, basal, 24 h, primary screen (AID 1177);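 also: cultures grown under basal conditions with no added stressor; test concentration not given here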
# assay-setup: S. cerevisiae RM11-1a growth, OD600, 24 h; higher = more signal, called active from +8 up or from −8 down
Is z-score at least 0.5? Then 1 (yes). If not, 0 (no).

Consider the following illustrative entries.
{"molecule": "CCCCC[C@H]1OC[C@@]23C=C(Br)[C@@H](CC12)[C@@]1(CO1)C3=O (stereo not given in full)", "assigned-label": "0 (no)"}
{"molecule": "CCN(CC)c1ccc(N2CC=CC34O[C@@H]5/C=C\\CCCOC(=O)C5[C@H]3C(=O)N(C(C)CO)[C@@H]4C2=O)cc1 (stereo not given in full)", "assigned-label": "0 (no)"}
{"molecule": "CCCC=C(CCC)[C@@H](NP(=O)(c1ccccc1)c1ccccc1)c1ccc(-c2ccccc2)cc1", "assigned-label": "1 (yes)"}
{"molecule": "CCCCC(O)C1C=CC2C(=O)N(C)C(=O)C2N1N(c1ccccc1)c1ccccc1 (stereo not given)", "assigned-label": "0 (no)"}
{"molecule": "C=CCC(OC(C)=O)[C@@H]1[C@@H](N(Cc2cccc3ccccc23)C(=O)Cc2ccc(OC)cc2)c2cc(OCCCO)ccc2N1C(=O)c1ccc(-c2ccccc2)cc1 (stereo not given in full)", "assigned-label": "0 (no)"}
{"molecule": "COc1ccc([Si](C)(C)[C@H]2[C@H](CC(=O)N(CCO)Cc3ccccc3)O[C@@]3(C(=O)N(C)c4c(Br)cc(C)cc43)[C@@H]2C)cc1", "assigned-label": "0 (no)"}

Exercise: Assess whether reported z-score for NCCCCCCNC(=O)[C@@H]1C[C@@H]2C(=O)N[C@@H](CCCCN)C(=O)N2[C@@H]1c1ccc(O)cc1 sits at 0.5 or higher.
Key: 0 (no)

Exercise: Query COCC(=C=CC[C@H](O)c1ccc(OCCO)cc1)CCO next
Key: 0 (no)

Exercise: Can you check CCCN1C(=O)[C@@]2(Cc3ccccc31)N=C(c1ccc(OCCCO)cc1)O[C@H]2c1ccccc1 next?
Key: 1 (yes)

Exercise: Another: O=C1O[C@H](c2ccccc2)[C@H](c2ccccc2)N2[C@H]1[C@@H](C(=O)O)[C@]1(C(=O)Nc3ccc(C#CCCO)cc31)[C@H]2c1ccccc1OCCO
Key: 1 (yes)

Exercise: Now this one: COc1cc(NN2C(C(O)c3ccc(N(C)C)cc3)C=CC3C(=O)N(c4ccccc4)C(=O)C32)cc(OC)c1OC (stereo not given)
Key: 0 (no)

Exercise: Field entry: COC(=O)[C@@]1(Cc2ccc(OC)cc2)[C@H]2c3cc(C(=O)N(C)C)n(Cc4ccc(OC(F)(F)F)cc4)c3C[C@H]2CN1C(=O)c1ccccc1
Key: 1 (yes)

Exercise: Request: CC(CO)N1C(=O)[C@@H]2[C@H]3C(=O)OCC=C[C@H]3OC23C=CCN(Cn2nnc4ccccc42)C(=O)[C@@H]13 (stereo not given in full)
Key: 0 (no)

Exercise: Would you kindly repeat that for CC[C@@H]1C=C(C(=O)O)[C@H](c2ccc(C#N)cc2)N1S(=O)(=O)c1ccc(C)cc1 ?
Key: 0 (no)

Exercise: And then COC(=O)[C@@]1(Cc2ccc(F)cc2)[C@H]2c3cc(C(=O)N(C)C)n(CCc4ccc(OC)c(Br)c4)c3C[C@H]2CN1C(=O)c1ccccc1 , what is it?
Key: 0 (no)

###

# run-description: viability profiling in RPMI8226 myeloma cells – cell-based, resazurin fluorescence, basal, 24 h, PK04 Diversity Set, profiling panel (AID 1180);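 also: RPMI8826 multiple myeloma cell line at 5000 cells per well; test concentration not given here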
# assay-setup: higher = more signal
test-readout: z-score
Hey, just send me the number, nothing else.

{"compound": "C=CC[C@@]1(C(=O)NCCCOC)N=C(c2ccc(OCCCO)cc2)O[C@@H]1c1ccccc1", "recorded-number": -0.1}
{"compound": "N[C@@H](Cc1ccccc1)C(=O)NCc1cn(Cc2ccccc2)nn1", "recorded-number": 0.449}
{"compound": "COc1cc2c(cc1O)C=[N+](Cc1sc3ccccc3c1Cl)CC2", "recorded-number": -0.496}
{"compound": "CCCC[C@@H](O)C1=C(COC)C[C@H]2C(=O)N(C)C(=O)[C@H]2[C@H]1CO", "recorded-number": 1.3}

Kindly review the next compound as well.
Exercise: Could you share which z-score value was measured for O=C(c1ccccc1)N1C(=O)[C@]2(Cc3ccccc31)N=C(c1ccc(OCCCO)cc1)O[C@@H]2c1ccccc1 ?
Key: -5.46

###

# run-description: JC-1 mitochondrial signal, unstimulated myeloma cells – cell-based, JC-1 fluorescence, RPMI8226, 24 h, 100 nL compound, profiling panel (AID 1169); also: test concentration not given here
# assay-setup: JC-1 mitochondrial potential fluorescence, higher = more signal
Use -0.7 as the dividing line for z-score, with the line itself on the condition met side and lower values as condition not met.

Some entries whose results are on file:
{"molecule": "C=CC[C@]1(C(=O)N2CCOCC2)COC(c2ccc(OCCCO)cc2)=N1", "assigned-label": "condition met"}
{"molecule": "C=CCC(OC(C)=O)[C@@H]1[C@@H](N(Cc2cc3ccccc3o2)C(=O)Cc2ccc(F)cc2)c2cc(OCCCO)ccc2N1C(=O)Cc1ccc2ccccc2c1 (some centres undefined)", "assigned-label": "condition met"}
{"molecule": "CC(C)[Si]1(C(C)C)OCc2cc(C3CC3)nc(-c3ccc(Oc4ccccc4)cc3)c21", "assigned-label": "condition not met"}
{"molecule": "CO[C@H]1O[C@H](CO)[C@@H](OC(=O)Nc2ccccc2)[C@H](OC(=O)c2cc3ccccc3[nH]2)[C@H]1OC(=O)c1cc2ccccc2[nH]1", "assigned-label": "condition not met"}

Exercise: Item [N-]=[N+]=NCc1ccccc1[C@@H]1OC(c2ccc(OCCCO)cc2)=N[C@]1(CCS(=O)(=O)c1ccccc1)C(=O)O with z-score of -0.7 or above?
Key: condition met

Exercise: Same question, COC(=O)[C@@]1(Cc2ccccc2)[C@H]2c3cc(C(=O)N(C)C)n(Cc4ccc(C)o4)c3C[C@H]2CN1C(=O)c1ccccc1 this time
Key: condition not met

Exercise: Now this one: [N-]=[N+]=Nc1ccccc1C[C@]1(C(=O)NCCN2CCOCC2)COC(c2ccc(OCCCO)cc2)=N1
Key: condition met
